// values below are reported growth
# Tested on: OVCAR-3 ovarian
# Procedure Summary: NCI-60 one-dose screen, 48 h (100 = growth as untreated, 0 = no growth, -100 = all killed)
# Experimental Setup: 10 µM
About 83,000 compounds went through this panel and 20% of them were active in at least one assay; those are over-represented in the sample as a whole.
All answers are understood in %, so give the number only.

CC(=O)Nc1cccc(NC(C)=O)n1; 112
c1csc(-c2cc(-c3cc(-c4cccs4)[nH]n3)n[nH]2)c1; 118
O=C(CC(=O)c1ccccc1O)c1ccccc1; 90.9

Problem: Request the reported growth associated with C=CCCCCCCCCCOC(C)=O
Result: 103

Problem: Fill blank: measured growth of the molecule Cc1ccc(C(O)C2CC2)cc1 (stereo not given) is ____.
Result: 106

Problem: Looking for the measured growth of COC(=O)c1cccnc1 , can you help?
Result: 106

Problem: Could you tell me which growth is on file for O=C(NCc1ccco1)Nc1c(Cl)cc(Cl)cc1Cl ?
Result: 112

Problem: Recorded growth for CC1(C(N)=O)CCC(C(=O)O)C1(C)C (stereo not given) , please?
Result: 119

Problem: What does the data say about its growth? Entry: COc1nc(N)nc2c1ncn2C1OC(CO)CC1O (stereo not given)
Result: 118

Problem: For the molecule CC(=O)OC(OC(C)=O)C1CCCO1 (stereo not given) , what growth is on record?
Result: 114

----------
Here, each record is paired with measured growth data.
# System: ACHN renal
# Procedure Summary: NCI-60 one-dose screen, 48 h (100 = growth as untreated, 0 = no growth, -100 = all killed)
# Experimental Setup: 10 µM
This is part of a sample that, as a whole, favours compounds with a hit. Of some 83,000 tested, about 20% had one in any assay.
Give a bare numeral; the unit % is implied.

CC(=O)Cc1ccc(-c2ccccc2)cc1; 108
CC(C)=NNC(N)=S; 88.3
C=C1CC/C=C(\C)C(=O)C[C@@H]2[C@@H]1CC2(C)C; 102
CC(=O)OCC1=CC2OC(=O)C3=COC(OC4OC(CO)C(O)C(O)C4O)C1C32 (configuration not stated); 111

Problem: # get_value(readout='growth', item= CCOC(=O)C(O)C(O)C(=O)OCC (configuration not stated) )
Result: 109

Problem: Query: growth; subject: CCC(C#N)(CC)c1ccccc1
Result: 103

Problem: growth for OCc1ccc(-c2ccc(-c3ccc(CO)s3)o2)s1 ?
Result: 63.7

----------
Reported growth values are given for each entry in this list.
# Test system: SK-MEL-28 melanoma
# Procedure Summary: NCI-60 one-dose screen, 48 h (100 = growth as untreated, 0 = no growth, -100 = all killed)
# Experimental Setup: 10 µM
Compounds without any hit were thinned out: in the full panel of roughly 83,000, 20% have a hit.
Provide the reading as a plain figure in %.

Solved cases (6 shown):
O=[N+]([O-])c1ccccc1N=Nc1ccc(O)cc1O; 121
CC(C)(O)C#CC#CC(C)(C)O; 99.4
Cc1ccc(Cl)cc1NC(=O)N(C)CCO; 145
CCC/C=C(\C)C(C)(C#N)C(=O)OCC (stereo not given); 109
COc1cc(C2NC(=O)C(C#N)=C(Nc3cccc(C)c3)S2)ccc1O (stereo not given); 103
COc1ccccc1NC(=O)c1cc2cc(Br)ccc2cc1O; 34.6

Problem: # input compound: O=[N+]([O-])c1cccc(N=Nc2ccc(O)cc2O)c1 ; wanted: its growth
Result: 99.1

Problem: So what does the record say about growth for C=CC(O)CCC (stereo not given) ?
Result: 98.3

Problem: May I ask what growth has been recorded for CC1=CC(=O)c2ccccc2C1=O ?
Result: 116

Problem: Which measured growth value corresponds to FC(F)(F)c1ccc2c(c1)N(CCCN1CCN(C3CC3)CC1)c1ccccc1S2 ?
Result: 93.8

Problem: Which growth is reported for this compound? CCCCOC(=O)c1ccc(C(C)C)cc1
Result: 111

Problem: Could you tell me which growth is on file for c1cc[n+](C2c3ccccc3C([n+]3ccccc3)c3ccccc32)cc1 (stereo not given) ?
Result: 61.6

Problem: Please look up its growth: COS(=O)(=O)c1ccc(Br)cc1
Result: 98.4

Problem: Could you share which growth value was measured for Sc1ccc(Nc2c3ccccc3nc3ccccc23)cc1 ?
Result: 101

Problem: Requested read-out: growth. Entry: COC(=O)C(O)c1ccccc1 (stereo not given)
Result: 103

Problem: Returns the measured growth for the input compound. Input: O=c1[nH]c(O)c(/C=C2/C=Nc3ccccc32)[nH]1
Result: 111

Problem: Quick one: growth for Cc1cc(=O)cc(C)n1-c1ccccc1 ?
Result: 104

Problem: Name the recorded growth for OC1CCCc2ccccc21 (stereo not given) .
Result: 120

Problem: # lookup: growth of OC(c1ccccn1)C(O)c1ccccn1 (stereo not given)
Result: 113

Problem: Fill in: growth of Cc1ccncc1C(N)=O is ___
Result: 114

Problem: Which growth reading was recorded for the compound CC(=O)c1c[nH]c2ccccc12 ?
Result: 103

Problem: Which growth is reported for this compound? CNc1nc(NC)c2cn[nH]c2n1
Result: 115

Problem: Param item = O=C(Nc1ccccc1)OCCc1ccccc1 ; retrieve measured growth.
Result: 100

Problem: For CN(C)c1nc2c([nH]1)c(=O)n(C)c(=O)n2C , what is its reported growth?
Result: 110

Problem: // lookup growth for CC1SC(N)=NC1=O (stereo not given)
Result: 112

----------
# Tested on: MOLT-4 leukemia
# Procedure Summary: NCI-60 one-dose screen, 48 h (100 = growth as untreated, 0 = no growth, -100 = all killed)
# Experimental Setup: 10 µM
This is part of a sample that, as a whole, favours compounds with a hit. Of some 83,000 tested, about 20% had one in any assay.
Threshold rule: growth greater than or equal to 90% is true (1); below that, false (0).

Problem: Please check the record CCCCCC(C)(CC(=O)O)CC(=O)O and state if its growth is at or above 90%.
Result: true (1)

Problem: Does O=S(=O)(O)c1cc(O)c2c(N=Cc3ccccc3O)c(S(=O)(=O)O)ccc2c1 have a reported growth of at least 90%?
Result: true (1)

Problem: Can Cc1ccc(S(=O)(=O)O)c(C)c1 be said to have growth at or above 90%?
Result: true (1)

Problem: Could you tell me if the measured growth of N#Cc1ccc(OC(=O)Nc2ccc(Cl)c(Cl)c2)cc1 reaches 90% or more?
Result: false (0)

Problem: Is growth for Cc1ccc(Cl)cc1N1C(=O)CC(Sc2ccccc2N)C1=O (stereo not given) at or above 90%?
Result: false (0)

Problem: Is the recorded value of growth equal to or greater than 90% for this molecule? Cc1cc(C(C)(C)C)cc(C)c1Br
Result: true (1)

Problem: Determine whether measured growth meets or exceeds 90% for Nc1nc2c(c(-c3nc(N)nc4c3CCc3ccccc3-4)n1)CCc1ccccc1-2
Result: true (1)

Problem: Check the entry CN(C)CCC(=O)c1ccc(O)cc1 : does growth equal or exceed 90%?
Result: true (1)

Problem: Decide: is the reported value of growth for Cc1ccc(N)cc1[N+](=O)[O-] equal to or greater than 90%?
Result: false (0)

Problem: Hi, just wondering whether COc1ccc(OC)c(/C=C2\CCc3ccccc3C2=O)c1 shows growth of 90% or higher.
Result: false (0)

----------
# Test system: SW-620 colon
# Procedure Summary: NCI-60 one-dose screen, 48 h (100 = growth as untreated, 0 = no growth, -100 = all killed)
# Experimental Setup: 10 µM
About 83,000 compounds went through this panel and 20% of them were active in at least one assay; those are over-represented in the sample as a whole.
Examples of compounds with documented growth follow.
Give just the numeric value; % need not be written.

For orientation, consider the following solved cases.
CCN=c1cc2sc3cc(NCC)c(C)cc3nc-2cc1C; 0.622
CN(C)C(=O)Oc1cccc([N+](C)(C)C)c1; 108
C/C(=C\c1ccc([N+](=O)[O-])cc1)C(=O)O; 102
CCOC(=O)C(C#N)Cc1ccccc1 (centres undefined); 117
NC(=O)N/N=C\c1ccco1; 107
Nc1ccc(N)c([N+](=O)[O-])c1; 97.7

Problem: Query: growth; subject: O=C(O)/C=C/C(=O)NCc1ccccc1
Result: 109

Problem: Item under review: CC1NC(=O)NC1CCCCCC(=O)O (centres undefined) . Reported growth?
Result: 105

Problem: # get_value(readout='growth', item= CCCCOC(OCCCC)c1ccccc1 )
Result: 110

Problem: Looking for the measured growth of O=C(O)c1cccc([N+](=O)[O-])c1O , can you help?
Result: 105

Problem: Fill in the blank: the reported growth of O=C1C=CC(=O)N1c1ccc(I)cc1Cl is ____.
Result: 107

Problem: Entry CCc1nn(Cc2ccccc2)c2nc(C)c(CCc3ccccc3)c(Cl)c12 has what growth?
Result: 99.2

Problem: What value of growth has been recorded for this entry: c1ncc2[nH]cnc2n1
Result: 96.7

Problem: Quick one: growth for CC(=O)CC(=O)N(C)C ?
Result: 101
